test system: Blood; experiment: Drug uptake in CD1 mouse blood at 5 mg/kg, iv; type: ADME, organism-based; details: in vivo
Readout Kind: Drug uptake

# Drug uptake lookup, item "CN[C@H](CC(C)C)C(=O)N[C@H]1C(=O)N[C@@H](CC(N)=O)C(=O)N[C@H]2C(=O)N[C@H]3C(=O)N[C@H](C(=O)N[C@H](C(=O)O)c4cc(O)c(CNCCO[C@@H]5O[C@H](CO)[C@H](O)[C@H](O)[C@H]5O)c(O)c4-c4cc3ccc4O)[C@H](O)c3ccc(c(Cl)c3)Oc3cc2cc(c3O[C@@H]2O[C@H](CO)[C@@H](O)[C@H](O)[C@H]2O[C@H]2C[C@](C)(NCc3ccc(-c4ccc(C(F)(F)F)cc4)cc3)[C@H](O)[C@H](C)O2)Oc2ccc(cc2Cl)[C@H]1O"
> 1 µg/mL

====

system: Enterococcus faecium; assay: Antibacterial activity against glycopeptide-resistant Enterococcus faecium Efm-HS-0847 vanM after 24 hrs by broth microdilution method; assay type: functional; conditions: Efm-HS-0847, 24 h
Readout Kind: MIC (µg/mL)
Unit µg/mL implied. Number only.

Here are 2 compounds together with their reported answers.
Cpd Smiles | MIC [µg/mL]
CN[C@H](CC(C)C)C(=O)N[C@H]1C(=O)N[C@@H](CC(N)=O)C(=O)N[C@H]2C(=O)N[C@H]3C(=O)N[C@H](C(=O)N[C@H](C(=O)NCCCN(C)C)c4cc(O)c(CNCCO[C@H]5O[C@H](CO)[C@@H](O)[C@H](O)[C@@H]5O)c(O)c4-c4cc3ccc4O)[C@H](O)c3ccc(c(Cl)c3)Oc3cc2cc(c3O[C@@H]2O[C@H](CO)[C@@H](O)[C@H](O)[C@H]2O[C@H]2C[C@](C)(NCc3ccc(-c4ccc(Cl)cc4)cc3)[C@H](O)[C@H](C)O2)Oc2ccc(cc2Cl)[C@H]1O | 2
CN[C@H](CC(C)C)C(=O)N[C@H]1C(=O)N[C@@H](CC(N)=O)C(=O)N[C@H]2C(=O)N[C@H]3C(=O)N[C@H](C(=O)N[C@H](C(=O)O)c4cc(O)c(CNCCO)c(O)c4-c4cc3ccc4O)[C@H](O)c3ccc(c(Cl)c3)Oc3cc2cc(c3O[C@@H]2O[C@H](CO)[C@@H](O)[C@H](O)[C@H]2O[C@H]2C[C@](C)(NCc3ccc(OCc4cccc(-c5ccccc5)c4C)c(Cl)c3)[C@H](O)[C@H](C)O2)Oc2ccc(cc2Cl)[C@H]1O | 2

Proceeding to the next compound to report its MIC.
# MIC lookup, item "CN[C@H](CC(C)C)C(=O)N[C@H]1C(=O)N[C@@H](CC(N)=O)C(=O)N[C@H]2C(=O)N[C@H]3C(=O)N[C@H](C(=O)N[C@H](C(=O)NCCCN(C)C)c4cc(O)c(C)c(O)c4-c4cc3ccc4O)[C@H](O)c3ccc(c(Cl)c3)Oc3cc2cc(c3O[C@@H]2O[C@H](CO)[C@@H](O)[C@H](O)[C@H]2O[C@H]2C[C@](C)(NCc3ccc(-c4ccc(Cl)cc4)cc3)[C@H](O)[C@H](C)O2)Oc2ccc(cc2Cl)[C@H]1O"
1

====

Catalogue of MIC readings, one per entry.
tested on: Enterococcus faecium; experiment: Antibacterial activity against glycopeptide-resistant Enterococcus faecium Efm-HS-0649 vanA after 24 hrs by broth microdilution method; format: functional; conditions: Efm-HS-0649, 24 h
Unit µg/mL implied. Number only.

Cpd Smiles | MIC, µg/mL
CN[C@H](CC(C)C)C(=O)N[C@H]1C(=O)N[C@@H](CC(N)=O)C(=O)N[C@H]2C(=O)N[C@H]3C(=O)N[C@H](C(=O)N[C@H](C(=O)O)c4cc(O)c(CNCCO)c(O)c4-c4cc3ccc4O)[C@H](O)c3ccc(c(Cl)c3)Oc3cc2cc(c3O[C@@H]2O[C@H](CO)[C@@H](O)[C@H](O)[C@H]2O[C@H]2C[C@](C)(NCc3ccc(OCc4cccc(-c5ccccc5)c4C)c(Cl)c3)[C@H](O)[C@H](C)O2)Oc2ccc(cc2Cl)[C@H]1O | 1

Proceeding to the next molecule to report its MIC.
Find MIC (Enterococcus faecium) for the entry "CN[C@H](CC(C)C)C(=O)N[C@H]1C(=O)N[C@@H](CC(N)=O)C(=O)N[C@H]2C(=O)N[C@H]3C(=O)N[C@H](C(=O)N[C@H](C(=O)O)c4cc(O)cc(O)c4-c4cc3ccc4O)[C@H](O[C@H]3C[C@](C)(N)[C@@H](O)[C@H](C)O3)c3ccc(c(Cl)c3)Oc3cc2cc(c3O[C@@H]2O[C@H](CO)[C@@H](O)[C@H](O)[C@H]2O[C@H]2C[C@](C)(NCc3ccc(-c4ccc(Cl)cc4)cc3)[C@@H](O)[C@H](C)O2)Oc2ccc(cc2Cl)[C@H]1O"
0.25

====

assay: Volume of distribution at steady state in CD1 mouse at 5 mg/kg, iv; type: ADME, organism-based; settings: in vivo, read-out: Vdss
Label satisfied when Vd is at or above 2 L/kg; otherwise label not satisfied.

Molecule | Label
CN[C@H](CC(C)C)C(=O)N[C@H]1C(=O)N[C@@H](CC(N)=O)C(=O)N[C@H]2C(=O)N[C@H]3C(=O)N[C@H](C(=O)N[C@H](C(=O)O)c4cc(O)c(CN[C@H]5C(O)O[C@H](CO)[C@H](O)[C@@H]5O)c(O)c4-c4cc3ccc4O)[C@H](O)c3ccc(c(Cl)c3)Oc3cc2cc(c3O[C@@H]2O[C@H](CO)[C@@H](O)[C@H](O)[C@H]2O[C@H]2C[C@](C)(NCc3ccc(-c4ccc(C(F)(F)F)cc4)cc3)[C@H](O)[C@H](C)O2)Oc2ccc(cc2Cl)[C@H]1O (stereo partly specified) | not satisfied

Given "CN[C@H](CC(C)C)C(=O)N[C@H]1C(=O)N[C@@H](CC(N)=O)C(=O)N[C@H]2C(=O)N[C@H]3C(=O)N[C@H](C(=O)N[C@H](C(=O)O)c4cc(O)c(CNCCO[C@@H]5O[C@H](CO)[C@H](O)[C@H](O)[C@H]5O)c(O)c4-c4cc3ccc4O)[C@H](O)c3ccc(c(Cl)c3)Oc3cc2cc(c3O[C@@H]2O[C@H](CO)[C@@H](O)[C@H](O)[C@H]2O[C@H]2C[C@](C)(NCc3ccc(-c4ccc(C(F)(F)F)cc4)cc3)[C@H](O)[C@H](C)O2)Oc2ccc(cc2Cl)[C@H]1O" , state whether its Vd is at least 2 L/kg.
not satisfied

Given "CN[C@H](CC(C)C)C(=O)N[C@H]1C(=O)N[C@@H](CC(N)=O)C(=O)N[C@H]2C(=O)N[C@H]3C(=O)N[C@H](C(=O)N[C@H](C(=O)O)c4cc(O)cc(O)c4-c4cc3ccc4O)[C@H](O)c3ccc(c(Cl)c3)Oc3cc2cc(c3O[C@@H]2O[C@H](CO)[C@@H](O)[C@H](O)[C@H]2O[C@H]2C[C@](C)(N)[C@H](O)[C@H](C)O2)Oc2ccc(cc2Cl)[C@H]1O" , state whether its Vd is at least 2 L/kg.
satisfied

Given CN[C@H](CC(C)C)C(=O)N[C@H]1C(=O)N[C@@H](CC(N)=O)C(=O)N[C@H]2C(=O)N[C@H]3C(=O)N[C@H](C(=O)N[C@H](C(=O)O)c4cc(O)c(CN[C@H]5C(O)O[C@H](CO)[C@H](O)[C@@H]5O)c(O)c4-c4cc3ccc4O)[C@H](O)c3ccc(c(Cl)c3)Oc3cc2cc(c3O[C@@H]2O[C@H](CO)[C@@H](O)[C@H](O)[C@H]2O[C@H]2C[C@](C)(NCc3ccc(-c4ccc(Cl)cc4)cc3)[C@H](O)[C@H](C)O2)Oc2ccc(cc2Cl)[C@H]1O (stereo partly specified) , state whether its Vd is at least 2 L/kg.
not satisfied

Given "CN[C@H](CC(C)C)C(=O)N[C@H]1C(=O)N[C@@H](CC(N)=O)C(=O)N[C@H]2C(=O)N[C@H]3C(=O)N[C@H](C(=O)N[C@H](C(=O)O)c4cc(O)c(CNCCCNC(=O)[C@H](O)[C@@H](O)[C@H](O)[C@H](O)CO)c(O)c4-c4cc3ccc4O)[C@H](O)c3ccc(c(Cl)c3)Oc3cc2cc(c3O[C@@H]2O[C@H](CO)[C@@H](O)[C@H](O)[C@H]2O[C@H]2C[C@](C)(NCc3ccc(-c4ccc(C(F)(F)F)cc4)cc3)[C@H](O)[C@H](C)O2)Oc2ccc(cc2Cl)[C@H]1O" , state whether its Vd is at least 2 L/kg.
not satisfied

Given "CN[C@H](CC(C)C)C(=O)N[C@H]1C(=O)N[C@@H](CC(N)=O)C(=O)N[C@H]2C(=O)N[C@H]3C(=O)N[C@H](C(=O)N[C@H](C(=O)O)c4cc(O)cc(O)c4-c4cc3ccc4O)[C@H](O)c3ccc(c(Cl)c3)Oc3cc2cc(c3O[C@@H]2O[C@H](CO)[C@@H](O)[C@H](O)[C@H]2O[C@H]2C[C@](C)(NCc3ccc(-c4ccc(C(F)(F)F)cc4)cc3)[C@H](O)[C@H](C)O2)Oc2ccc(cc2Cl)[C@H]1O" , state whether its Vd is at least 2 L/kg.
not satisfied
